Below, each entry is listed with its recorded pKi.
biological target: Plasma kallikrein (Homo sapiens); assay: Inhibition of human plasma kallikrein using fluorogenic H-Pro-Phe-Arg-AMC peptide as substrate preincubated for 15 mins followed by substrate addition measured by fluorescence-based assay; settings: read-out: Ki(app)
Sequence (P03952 20-390 limits assumed): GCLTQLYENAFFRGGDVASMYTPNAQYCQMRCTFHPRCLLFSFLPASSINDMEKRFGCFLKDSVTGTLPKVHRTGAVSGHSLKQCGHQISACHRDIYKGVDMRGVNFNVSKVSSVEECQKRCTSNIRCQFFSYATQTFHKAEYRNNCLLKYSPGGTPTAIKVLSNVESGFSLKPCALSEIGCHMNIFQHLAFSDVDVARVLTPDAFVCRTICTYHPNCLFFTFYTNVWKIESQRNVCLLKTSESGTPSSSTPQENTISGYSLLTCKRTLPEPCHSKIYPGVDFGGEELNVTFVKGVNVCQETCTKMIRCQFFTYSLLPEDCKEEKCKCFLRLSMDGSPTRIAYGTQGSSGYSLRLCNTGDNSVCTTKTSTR
Sequence (P03952 391-638 limits assumed): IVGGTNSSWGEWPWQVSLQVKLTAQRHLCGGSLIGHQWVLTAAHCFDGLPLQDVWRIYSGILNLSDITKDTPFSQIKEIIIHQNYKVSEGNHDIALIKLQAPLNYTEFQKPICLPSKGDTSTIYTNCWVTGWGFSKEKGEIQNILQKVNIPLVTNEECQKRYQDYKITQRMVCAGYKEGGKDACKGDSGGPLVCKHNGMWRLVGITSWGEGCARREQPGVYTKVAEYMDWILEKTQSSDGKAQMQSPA
*1 amine or outer side, *2 acyl side, *3 side chain or, on linkers, in order; H or OH if unused. Where a SMILES comes first, the peptide text is derived from it. Bridges are numbered along the chain shown (N, C = ends). [ ]: non-standard residue; d: D form. ξ: configuration not given here. TBMB = c1c(C[*:1])cc(C[*:3])cc1C[*:2]; hArg = N=C(N)NCCCC[C@H](N)C(=O)O; ξAze = O=C(O)C1CCN1
Remember the convention: pKi equals -log10 of concentration in molar.

CC(C)C[C@@H]1NC(=O)[C@H](CC(=O)O)NC(=O)[C@H](CCC(N)=O)NC(=O)[C@H](Cc2cnc[nH]2)NC(=O)[C@H](CC(C)C)NC(=O)[C@@H]2CSCc3cc(cc(c3)CSC[C@@H](C(=O)N[C@@H](C)C(=O)O)NC1=O)CSC[C@H](NC(=O)[C@H](C)N)C(=O)N[C@@H](CO)C(=O)N[C@@H](Cc1c[nH]c3ccccc13)C(=O)N1CCC[C@H]1C(=O)N[C@@H](C)C(=O)N[C@@H](CCCNC(=N)N)C(=O)N2 (H-ACSWPARCLHQDLCA-OH; linker 2-8-14 via TBMB) | 10.15

Proceed to the following item.
Reported pKi, compound CC(=O)N[C@H]1CSCc2cc3cc(c2)CSC[C@H](NC(=O)[C@H](CCCCNC(=N)N)NC(=O)[C@H](C)NC(=O)C2CCN2C(=O)[C@H](Cc2c[nH]c4ccccc24)NC(=O)[C@H](CO)NC1=O)C(=O)N[C@@H](CC(C)C)C(=O)N[C@@H](Cc1cnc[nH]1)C(=O)N[C@@H](CCC(N)=O)C(=O)N[C@@H](CC(=O)O)C(=O)N[C@@H](CC(C)C)C(=O)N[C@H](C(=O)O)CSC3 (some centres not stated) (Ac-CSW[ξAze]A[hArg]CLHQDLC-OH; linker 1-7-13 via TBMB) : ____ 9.85
